Target: FDAS (native, wild type) (Streptantibioticus cattleyicolor, UniProt Q70GK9)
Assay: Isothermal titration calorimetry
Type: binding
Hi! Just check whether Kd is below 800 nM. Below gives Met, equal or above gives Not met.

[
  {
    "Compound": "Nc1ncnc2c1ncn2[C@@H]1O[C@H](CO)C[C@H]1O",
    "Class": "Not met"
  },
  {
    "Compound": "Nc1ncnc2c1ncn2[C@@H]1O[C@H](CSCC[C@H](N)C(=O)O)[C@@H](O)[C@H]1O",
    "Class": "Met"
  },
  {
    "Compound": "C[S+](CC[C@H](N)C(=O)[O-])C[C@H]1O[C@@H](n2cnc3c(N)ncnc32)[C@H](O)[C@@H]1O (some centres unmarked)",
    "Class": "Not met"
  },
  {
    "Compound": "Nc1ncnc2c1ncn2[C@@H]1O[C@H](CF)[C@@H](O)[C@H]1O",
    "Class": "Met"
  }
]

====

S overview
Target: apo FDAS (Streptantibioticus cattleyicolor, UniProt Q70GK9)
Sequence (Q70GK9 whole entry): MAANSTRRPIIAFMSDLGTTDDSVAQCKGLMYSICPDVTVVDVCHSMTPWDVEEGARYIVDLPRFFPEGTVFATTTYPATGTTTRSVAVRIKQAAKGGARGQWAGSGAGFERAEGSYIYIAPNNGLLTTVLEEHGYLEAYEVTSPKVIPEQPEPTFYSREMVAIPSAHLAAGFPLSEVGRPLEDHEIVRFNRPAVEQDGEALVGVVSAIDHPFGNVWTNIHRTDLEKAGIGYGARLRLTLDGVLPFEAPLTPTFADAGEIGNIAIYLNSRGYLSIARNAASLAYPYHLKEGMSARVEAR
Assay: ITC binding of ligands to apo FDAS
Design: species or system Streptomyces cattleya
Settings: ITC, 25 °C, pH 7.8, apo FDAS

[
  {
    "Compound": "Nc1ncnc2c1ncn2[C@@H]1O[C@H](CSCC[C@H](N)C(=O)O)[C@@H](O)[C@H]1O",
    "S, kcal/mol": -0.098
  },
  {
    "Compound": "Nc1ncnc2c1ncn2[C@@H]1O[C@H](CF)[C@@H](O)[C@H]1O",
    "S, kcal/mol": -0.017
  },
  {
    "Compound": "Nc1ncnc2c1ncn2[C@@H]1O[C@H](CO)C[C@H]1O",
    "S, kcal/mol": -0.027
  },
  {
    "Compound": "Nc1ncnc2c1ncn2[C@@H]1O[C@H](CO)[C@@H](O)[C@H]1O",
    "S, kcal/mol": -0.04
  },
  {
    "Compound": "C[S+](CC[C@H](N)C(=O)[O-])C[C@H]1O[C@@H](n2cnc3c(N)ncnc32)[C@H](O)[C@@H]1O (some centres unmarked)",
    "S, kcal/mol": -0.058
  }
]

====

Target: apo FDAS (Streptantibioticus cattleyicolor)
Assay: ITC binding of ligands to apo FDAS
Design: species or system Streptomyces cattleya
Conditions: ITC, 25 °C, 20mM sodium phosphate buffer (pH 7.8), apo FDAS
Hi! Just check whether Stoichiometry (N) is below 0.7. Below gives yes (1), equal or above gives no (0).

[
  {
    "Compound": "Nc1ncnc2c1ncn2[C@@H]1O[C@H](CO)[C@@H](O)[C@H]1O",
    "Class": "yes (1)"
  },
  {
    "Compound": "C[S+](CC[C@H](N)C(=O)[O-])C[C@H]1O[C@@H](n2cnc3c(N)ncnc32)[C@H](O)[C@@H]1O (some centres unmarked)",
    "Class": "yes (1)"
  },
  {
    "Compound": "Nc1ncnc2c1ncn2[C@@H]1O[C@H](CF)[C@@H](O)[C@H]1O",
    "Class": "no (0)"
  },
  {
    "Compound": "Nc1ncnc2c1ncn2[C@@H]1O[C@H](CO)C[C@H]1O",
    "Class": "yes (1)"
  }
]

====

Molecular target: apo FDAS (Streptantibioticus cattleyicolor)
Test: ITC binding of ligands to apo FDAS
Parameters: species or system Streptomyces cattleya
Settings: ITC, 25 °C, pH 7.8, apo FDAS
Hi! Just check whether ΔH is below -20 kcal/mol. Below gives label 1, equal or above gives label 0.

[
  {
    "Compound": "Nc1ncnc2c1ncn2[C@@H]1O[C@H](CO)C[C@H]1O [3′-deoxy-Ade]",
    "Class": "label 0"
  },
  {
    "Compound": "Nc1ncnc2c1ncn2[C@@H]1O[C@H](CSCC[C@H](N)C(=O)O)[C@@H](O)[C@H]1O [SAH, S-adenosyl homocysteine]",
    "Class": "label 1"
  },
  {
    "Compound": "Nc1ncnc2c1ncn2[C@@H]1O[C@H](CF)[C@@H](O)[C@H]1O [FDA, 5′-fluoro-5′-deoxy adenosine]",
    "Class": "label 0"
  },
  {
    "Compound": "C[S+](CC[C@H](N)C(=O)[O-])C[C@H]1O[C@@H](n2cnc3c(N)ncnc32)[C@H](O)[C@@H]1O (stereo partly drawn) [SAM, S-adenosyl-L-methionine]",
    "Class": "label 1"
  }
]
